B1: Osa-1-4 twister ribozyme (parent)
chain: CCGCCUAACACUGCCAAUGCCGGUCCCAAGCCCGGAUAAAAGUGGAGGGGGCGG

# Variants of: B1
# experiment summary: self-cleavage, relative activity (ratio to wild type); higher = more cleavage; co-transcriptional
I'd appreciate it if you could supply self-cleavage values for the items below.
Enter the number alone.

Just so you know, measured self-cleavage for A40C C21A came out at 0.07

Just so you know, measured self-cleavage for A36U G49C came out at 0.07

Just so you know, measured self-cleavage for C14U G35C came out at 0.07
